// reported TGI for each item listed
# System: U251 CNS
# Method summary: NCI tumour cell line growth inhibition, 48 h
Measurement label: TGI (µM)

1. FC(F)(F)c1cccc(Nc2nccc(-c3cnn4nc(-c5ccccc5)ccc34)n2)c1 : 10.1
2. CCOn1c(C2(CC3CCN(C(=O)c4ccccc4)CC3)OCCO2)cc2ccccc21 : 29.9

---

# Tested on: BT-549 breast
# Method summary: NCI tumour cell line growth inhibition, 48 h
// reported TGI for each item listed
Measurement label: TGI

1. O=C1CSC(c2cccs2)N1c1nc2cc3sc(N4C(=O)CSC4c4cccs4)nc3cc2s1 (centres undefined) : > 50 µM
2. NC(=O)C(=CNC(=S)c1ccncc1)C(N)=O : > 100 µM
3. CCC(C)C(=O)OC1CC2(C)C(c3ccoc3)OC(=O)CC23OC2(C)OC34C(OC(=O)C(C)C)C3(O)C(OC(=O)C5(C)OC5C)C5(C)CC3(O)C(C)(C5CC(=O)OC)C14O2 (centres undefined) : > 100 µM
4. COC1/C=C\C=C(/C)C(=O)NC2=CC(=O)C(=O)C(=C2O)CC(C)CC(OC)C(O)C(C)/C=C(\C)C1OC(N)=O (centres undefined) : > 100 µM

---

# Tested on: NCI-H23 lung
# Method summary: NCI tumour cell line growth inhibition, 48 h
Measurement label: GI50

1) Oc1ccc(NCc2nc3ccccc3[nH]2)cc1 : 54.5 µM
2) O=C1CCCCN1CCCCC#Cc1ccccc1C#Cc1ccc([N+](=O)[O-])cc1 : 4.23 µM
3) COC(=O)[C@]12CC[C@@H](C)[C@H](C)[C@@H]1C1=CC[C@@H]3[C@@]4(C)C/C(=N\O)[C@H](O)[C@@]5(C)COC(=C45)C[C@@]3(C)[C@]1(C)CC2 : 6.89 µM
4) CC(C)c1nc(CN(C)C(=O)N[C@H](C(=O)N[C@@H](Cc2ccccc2)C[C@H](O)[C@H](Cc2ccccc2)NC(=O)OCc2cncs2)C(C)C)cs1 : 42.6 µM
5) O=c1[nH]ncc(Br)c1Br : 1.92 µM
6) OCC(O)CC[CH2][Sn]([Br])([c]1ccccc1)[c]1ccccc1 (stereo unspecified) : > 100 µM
7) Nc1cc(N)c2nc(-c3ccccc3)c(Nc3ccc(Cl)c(Cl)c3)nc2c1 : 19.1 µM
8) FC(F)(F)c1cccc(Nc2nccc(-c3cnn4nc(-c5ccccc5)ccc34)n2)c1 : 9.13 µM
9) CCOc1cc2c(Cl)ncnc2c(OCC)c1OCC : 7.71 µM
10) COc1ccc(-c2cnnc3c(-c4cccc(C(F)(F)F)c4)cnn23)cc1 : 4.26 µM
11) COc1cc(C2NC(=O)c3ccccc3N2)ccc1OCCCCCOc1c(OC)cc(C2=NOC(c3cc(OC)c(OC)c(OC)c3)C2)cc1OC (stereo unspecified) : 0.484 µM

---

# System: SNB-19 CNS
# Method summary: NCI tumour cell line growth inhibition, 48 h; in the data active means GI50 below about 0.43 µM; inactive means the rest
Labels: True for active, False for inactive

1) CCCn1cnc2c(SCc3ccccc3Cl)nc(N)nc21 : False
2) O=C(N/N=C/c1ccccc1O)c1ccccc1Nc1ccnc(C(F)(F)F)c1 : False
3) O=C1CCCCN1CCCCC#Cc1ccccc1C#Cc1ccc([N+](=O)[O-])cc1 : False
4) O=c1[nH]ncc(Br)c1Br : False
5) C=CCCCCCCCCC(=O)[O][Sn]([CH2]CCC)([CH2]CCC)[CH2]CCC : True
6) Oc1ccc(NCc2nc3ccccc3[nH]2)cc1 : False
7) N#Cc1ccc(O)c(C2=NCC(c3cccc(Oc4ccccc4)c3)O2)c1 (stereo not given) : False
8) O=C(/C(Br)=C/c1ccccc1)c1ccccc1 : False
9) N#Cc1ccc(NC(=O)Nc2ccc(Oc3ccc(NC(=O)Nc4ccc(C#N)cc4)cc3)cc2)cc1 : False
10) CCC[CH2][Sn]([CH2]CCC)([O]C(=O)c1cccnc1SC)[O]C(=O)c1cccnc1SC : False
11) CC(=O)OC[C@]1(C)C=C2C(=O)[C@](C)(O)C3(CC3)C(C)=C2[C@H]1O : True
12) CC1(C)OC2[C@@H](CNC(=O)NC(=O)NC(=O)CI)O[C@@H](n3cnc4c(NC(=O)Nc5ccccc5)ncnc43)[C@H]2O1 (stereo not given in full) : False
13) COc1ccc(-c2cnnc3c(-c4cccc(C(F)(F)F)c4)cnn23)cc1 : False
14) CCC[CH2][Sn]1([CH2]CCC)[O]Cc2nc(C)ccc2[O]1 : False
15) NC(=O)c1ccc(I)c(N)c1 : False

---

// reported TGI for each item listed
# Test system: TK-10 renal
# Method summary: NCI tumour cell line growth inhibition, 48 h
Measurement label: TGI

1. NC(=O)c1ccc(I)c(N)c1 : > 100 µM
2. O=C1C=CC(=O)c2c(O)c(NCCc3ccc(O)cc3)c(Cl)c(O)c21 : > 10 µM
3. CC1(C(=O)O)CCCC1C(=O)O (stereo not drawn) : > 100 µM

---

# System: LOX IMVI melanoma
# Method summary: NCI tumour cell line growth inhibition, 48 h
Measurement label: TGI

1) Nc1ccc(S(=O)(=O)Nc2nc3ccccc3nc2N2CCCCC2)cc1 : > 100 µM
2) COCc1nc2c(OC)cc(-c3nc4ccc(N5CCN(C)CC5)cc4[nH]3)c(OC)c2[nH]1 : 34.8 µM
3) N#Cc1ccc(O)c(C2=NCC(c3cccc(Oc4ccccc4)c3)O2)c1 (configuration not stated) : 12.7 µM
4) CC(C)(C)c1cc(/C=C(\C#N)C(=O)NCCO)cc(C(C)(C)C)c1O : 53.9 µM
5) COC(=O)[C@]12CC[C@@H](C)[C@H](C)[C@@H]1C1=CC[C@@H]3[C@@]4(C)C/C(=N\O)[C@H](O)[C@@]5(C)COC(=C45)C[C@@]3(C)[C@]1(C)CC2 : 17 µM
6) NC(=O)c1cc2ccccc2o/c1=N/O : > 100 µM
7) Oc1ccc(NCc2nc3ccccc3[nH]2)cc1 : > 100 µM
8) C=CCOCCCCC(C(C)=O)C(=O)OC (configuration not stated) : > 100 µM
9) COc1cc(C2=C(c3ccccc3)COC2=O)cc(OC)c1OC : > 100 µM
10) Nc1c(C(=O)c2ccc(Cl)cc2)[nH]c(NCc2ccccc2)c1C(=S)Nc1ccccc1 : 3.19 µM
11) O=c1[nH]ncc(Br)c1Br : 3.06 µM
12) O=[N+]([O-])c1ccc(-c2ccc(-c3csc(Nc4ccccn4)n3)o2)cc1 : > 100 µM
13) FC(F)(F)c1cccc(Nc2nccc(-c3cnn4nc(-c5ccccc5)ccc34)n2)c1 : > 17.7 µM
14) O=C(N/N=C/c1ccccc1O)c1ccccc1Nc1ccnc(C(F)(F)F)c1 : > 54.7 µM
15) FC(F)(F)c1ccc2nc3n(c2c1)C(c1c(Cl)cccc1Cl)SC3 (configuration not stated) : > 100 µM
16) Oc1ccc(CN2CCC(N3CCCCC3)CC2)c2cccnc12 : > 100 µM
17) C/C(CC(=O)Nc1cc(Cl)c(Cl)cc1Cl)=N\NC(N)=O : > 100 µM

---

# Tested on: NCI-H460 lung
# Method summary: NCI tumour cell line growth inhibition, 48 h
Measurement label: TGI (µM)

1. C=CCCCCCCCCC(=O)[O][Sn]([CH2]CCC)([CH2]CCC)[CH2]CCC : 0.312
2. N#Cc1cc2c(cc1Cl)Sc1nccn1S2(=O)=O : 32.2
3. CC1=CC(=Nc2ccc(N(CCCl)CCCl)cc2)C=C(C)C1=O : 1.96
4. O=C(N/N=C/c1ccccc1O)c1ccccc1Nc1ccnc(C(F)(F)F)c1 : 11.2
5. C=C1C(=O)O[C@@]23C1CC[C@@H](C)C2CC[C@@]1(C)OC31 (some centres undefined) : 35.2

---

# Test system: XF 498 CNS
# Method summary: NCI tumour cell line growth inhibition, 48 h
Measurement label: TGI

1. CCCCN=C(NC#N)NCCCC : > 100 µM
2. NC(N)=Nc1ncccc1[N+](=O)[O-] : > 100 µM
3. O=C1O[C@@H](c2ccc3c(c2)OCO3)C2C(=O)O[C@@H](c3ccc4c(c3)OCO4)C12 (stereo partly drawn) : > 100 µM

---

# Test system: A498 renal
# Method summary: NCI tumour cell line growth inhibition, 48 h
// reported TGI for each item listed
Measurement label: TGI

1) COc1ccc(-c2cc(=O)c3ccc(O)cc3o2)cc1OC : > 100 µM
2) Oc1ccc2ccccc2c1N=Nc1nccs1 : > 96.7 µM
3) Oc1ccc(NCc2nc3ccccc3[nH]2)cc1 : > 100 µM

---

# System: HCT-15 colon
# Method summary: NCI tumour cell line growth inhibition, 48 h
// reported TGI for each item listed
Measurement label: TGI

1. NC(=O)C(=O)N/N=C(\CC1(O)C(=O)Nc2ccccc21)c1ccc2ccccc2c1 (stereo not drawn) : > 100 µM
2. CC[C@@H]1CN(C)[C@H]2Cc3c([nH]c4ccccc34)C(=O)C[C@H]1C2C(=O)OC (stereo partly drawn) : > 100 µM
3. COc1ccc2cc(NC(=O)N/N=C\c3ccc(Cl)cc3)ccc2c1 : > 100 µM
